Each recorded value in this set is attributed to PubChem BioAssay AID2060907.

Tested on: 388556-164-R-J1-PDC complex spheroid viability;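 further: spheroids exposed to compound for 7 days before readout; 100% = DMSO vehicle control luminescence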
Assay: Anticancer human tumor 388556-164-R-J1-PDC patient-derived colon adenocarcinoma cell line growth inhibition [RAS]
Conditions: second compound 3.16 µM; first compound 0.0316 µM; active compounds read low
endpoint: viability, T/C (%)
Number only, in %; omit the unit.

For the compound shown here, Nc1ccn(C2OC(CO)C(O)C2(F)F)c(=O)n1 (stereo not given) + C#Cc1c(F)ccc2cc(O)cc(-c3ncc4c(N5CC6CCC(C5)N6)nc(OCC56CCCN5CC(F)C6)nc4c3F)c12 , give the reported viability, T/C. 69.5

For the compound shown here, CC1(O)CCCC1n1c(=O)c(C(F)F)cc2cnc(NC3CCN(S(C)(=O)=O)CC3)nc21 (stereo not given) + C#Cc1c(F)ccc2cc(O)cc(-c3ncc4c(N5CC6CCC(C5)N6)nc(OCC56CCCN5CC(F)C6)nc4c3F)c12 , give the reported viability, T/C. 86.2
